tested on: Hs-578T; assay: NCI tumour cell line growth inhibition, 48 h
The source made the active and inactive calls. Cut-off read from the data, not from the text of the source: active = GI50 up to about 1.1 µM and inactive = higher.
Parameter call: string, one of 1 for active, -1 for inactive

{"Compound": "CC1OC(O[C@H]2/C=C/C=C/C=C/C=C/C=C/C=C/C=C/[C@H](C)[C@@H](O)[C@@H](C)[C@H](C)OC(=O)C[C@H](O)C[C@H](O)CC[C@@H](O)[C@H](O)C[C@H](O)C[C@]3(O)C[C@H](O)[C@@H](C(=O)O)[C@H](C2)O3)C(O)C(N)C1O (stereo not given in full)", "Class Name": -1}
{"Compound": "COc1cc2c(cc1O)-c1c(OC)c(O)cc3c1C(C2)N(C)CC3 (stereo not given)", "Class Name": -1}
{"Compound": "COc1ccccc1C(=O)c1c(NCc2ccccc2)c(=O)c1=O", "Class Name": -1}
{"Compound": "Nc1ncnc2c1ccn2C/C=C/CO", "Class Name": -1}

Now for another entry.
Look up the recorded call for COc1cc2cc(C(=O)N3CC(CCl)c4ccc(NO)cc43)[nH]c2c(OC)c1OC (stereo not given) in this test.
1
